Hi there, I'd appreciate the recorded Pesticide content of fumigant-free soil disinfestation materials after set time on Soil for every entry that follows.
Assay: Lab soil pesticide release testing
Type: physicochemical
Settings: Example 3 material; 21 days on humid soil; HPLC, LoQ 0.25 g/ha
// units = g/ha; emit number, no label

Q: Endpoint output: Pesticide content of fumigant-free soil disinfestation materials after set time on Soil of CON=C(C(=O)OC)c1ccccc1CON=C(C)c1cccc(C(F)(F)F)c1 . Value?
Ans: 3

Q: Dear colleague, I am looking for the recorded Pesticide content of fumigant-free soil disinfestation materials after set time on Soil of the following compound: CC(C)(C)C(O)(CCc1ccc(Cl)cc1)Cn1cncn1 (centres unmarked)
Ans: 8

Q: Consider the compound shown here: Cc1nn(-c2cc(NS(C)(=O)=O)c(Cl)cc2Cl)c(=O)n1C(F)F What is its recorded Pesticide content of fumigant-free soil disinfestation materials after set time on Soil?
Ans: 0

Q: Value lookup for Pesticide content of fumigant-free soil disinfestation materials after set time on Soil; key = COC(=O)c1c(Cl)nn(C)c1S(=O)(=O)NC(=O)Nc1nc(OC)cc(OC)n1
Ans: 0

Q: What Pesticide content of fumigant-free soil disinfestation materials after set time on Soil value was documented for this compound, O=C(NCCc1ncc(C(F)(F)F)cc1Cl)c1ccccc1C(F)(F)F ?
Ans: 0

Reference source: patent US11992009B2
